# TARGET SYSTEM: BATF;JUNB (human;human, UniProt Q16520;P17275 1-125;148-347, |)
# Sequence 1: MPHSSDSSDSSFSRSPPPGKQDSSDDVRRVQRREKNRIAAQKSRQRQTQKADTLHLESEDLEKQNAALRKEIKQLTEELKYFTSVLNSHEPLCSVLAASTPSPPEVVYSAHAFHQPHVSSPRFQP
# Sequence 2: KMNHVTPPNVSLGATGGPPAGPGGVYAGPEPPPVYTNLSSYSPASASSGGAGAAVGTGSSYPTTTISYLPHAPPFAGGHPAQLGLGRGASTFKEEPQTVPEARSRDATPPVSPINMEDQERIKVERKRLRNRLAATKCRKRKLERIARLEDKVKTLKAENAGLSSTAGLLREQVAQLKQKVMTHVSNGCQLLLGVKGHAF
# ASSAY DETAILS: Spec-seq (EMSA and sequencing of bound and unbound bands); 100 nM BATFx-JUNB, 1 uM dsDNA library, 50 mM K acetate, 20 mM Tris-acetate, 10 mM Mg acetate, 100 ug/ml BSA, pH 7.9, 10% glycerol, 30 min on ice; native 9% PAGE at 4 C; low values mean tight binding
# TEST CONDITIONS: protein: recombinant;recombinant; tags: N-terminal mCherry-TEV, cleaved off;C-terminal 6His; copies: 1;1; dsDNA, one strand shown
A collection of sequences and their measured binding signal

QUERY SEQUENCE	EXPERIMENTAL RESULT
GATAGTCTCATTTTCACCCCGTGAAAAGACTCATTTGTTCCATTACAGTATCTGT	0.016 kT
GATAGTCTCATTTTCACCCCGTGAAATGAGTCACTTGTTCCATTACAGTATCTGT	-0.822 kT
GATAGTCTCATTTTCACCCCGTGAAATGACCCAGTTGTTCCATTACAGTATCTGT	0.583 kT
GATAGTCTCATTTTCACCCCGTGAAATGTCTCATTTGTTCCATTACAGTATCTGT	0.287 kT
GATAGTCTCATTTTCACCCCGTGAAATGACGTCTTTGTTCCATTACAGTATCTGT	-0.0562 kT

GET /values?readout=binding signal&item= GATAGTCTCATTTTCACCCCGTGAAATGTGTCATTTGTTCCATTACAGTATCTGT -0.52 kT

Looking for the measured binding signal of GATAGTCTCATTTTCACCCCGTGAAATGAGGCAATTGTTCCATTACAGTATCTGT , can you help? 0.661 kT

Any idea what binding signal was measured for GATAGTCTCATTTTCACCCCGTGAAATGACTAAATTGTTCCATTACAGTATCTGT ? -0.125 kT

For GATAGTCTCATTTTCACCCCGTGAAAATGGGTCATTGTTCCATTACAGTATCTGT , what is its reported binding signal? -0.00523 kT

Entry under review: GATAGTCTCATTTTCACCCCGTGAAATAACTCATTTGTTCCATTACAGTATCTGT . Reported binding signal? -0.0626 kT

Look up binding signal for this sequence: GATAGTCTCATTTTCACCCCGTGAAATGGGTCATTTGTTCCATTACAGTATCTGT 0.293 kT

Consider the sequence shown here: GATAGTCTCATTTTCACCCCGTGAAATCGAGTCATTGTTCCATTACAGTATCTGT What is its recorded binding signal? -0.54 kT

Would you kindly share the measured binding signal for GATAGTCTCATTTTCACCCCGTGAAATCACGTCATTGTTCCATTACAGTATCTGT ? -0.743 kT

Which value of binding signal has been reported for GATAGTCTCATTTTCACCCCGTGAAAGCGAGTCATTGTTCCATTACAGTATCTGT in the records? -0.514 kT

Entry under review: GATAGTCTCATTTTCACCCCGTGAAAAGACGTCATTGTTCCATTACAGTATCTGT . Reported binding signal? -0.231 kT

Suppose we examine the sequence GATAGTCTCATTTTCACCCCGTGAAATGAGTGATTTGTTCCATTACAGTATCTGT ; what binding signal value has been reported? 0.0243 kT

Consider the sequence shown here: GATAGTCTCATTTTCACCCCGTGAAATGACGTTATTGTTCCATTACAGTATCTGT What is its recorded binding signal? -0.288 kT

State the recorded binding signal for this entry: GATAGTCTCATTTTCACCCCGTGAAATGACTCGTTTGTTCCATTACAGTATCTGT -0.0971 kT

Item under review: GATAGTCTCATTTTCACCCCGTGAAATAGAGTCATTGTTCCATTACAGTATCTGT . Reported binding signal? -0.357 kT

Any idea what binding signal was measured for GATAGTCTCATTTTCACCCCGTGAAATGAGTGAATTGTTCCATTACAGTATCTGT ? 0.0809 kT

Give the measured binding signal of GATAGTCTCATTTTCACCCCGTGAAATGACTCCCTTGTTCCATTACAGTATCTGT . 0.214 kT

Data request, read-out binding signal, for GATAGTCTCATTTTCACCCCGTGAAAATGAGTCATTGTTCCATTACAGTATCTGT -1.25 kT

Name the recorded binding signal for GATAGTCTCATTTTCACCCCGTGAAATGAGTCGATTGTTCCATTACAGTATCTGT . -0.215 kT
